# reported MIC; entries follow
Tested on: Staphylococcus aureus strain ATCC 6538
protocolDescription: MIC determination by twofold dilution in microplates against Staphylococcus aureus
Format: cell-based
statedConditions: Staphylococcus aureus, ATCC6538; S. aureus ATCC 6538; 24 hours at 30° C.; interval a-b; triplicate; read-out: MIC
readoutType: MIC

                                   molecule              result
0  CCCCCCCCCCCCOC(=O)c1ccc(O)cc1 [Compound 8, 4-Hydroxy-benzoic acid dodecyl ester]      25 to 50 µg/mL
1  COC(=O)c1ccc(O)cc1 [Methyl paraben, reference compound]     50 to 100 µg/mL
2  CCCOC(=O)c1ccc(O)cc1 [Propyl paraben, reference compound]     50 to 100 µg/mL
3  CC(C)CCCCCC(O)CCOC(=O)c1ccc(O)cc1 (centres unmarked)    12.5 to 25 µg/mL
4  CCCCCCCCCCOC(=O)c1ccc(O)cc1 [Compound 4, 4-Hydroxy-benzoic acid decyl ester]  0.78 to 1.56 µg/mL

* * *

# reported MBC/MIC ratio; entries follow
Test system: Staphylococcus aureus (ATCC 6538)
protocolDescription: MBC determination by subculturing wells with no visible growth onto agar plates
Format: cell-based
statedConditions: S. aureus
readoutType: MBC/MIC ratio

In [3]: df
Out[3]:
                                   compound    readouttype  readoutqualifier  recordednumber
0  CCCCOC(=O)c1ccc(O)cc1 [Compound 2, 4-Hydroxy-benzoic acid butyl ester]  MBC/MIC ratio                 >              16
1  CCCCCCCCOC(=O)c1ccc(O)cc1 [Compound 3, 4-Hydroxy-benzoic acid octyl ester]  MBC/MIC ratio                 =               2
2  CCCCCC/C=C/CCCCOC(=O)c1ccc(O)cc1 [Compound 9]  MBC/MIC ratio                 =               8
3  CCCCCCCCCCOC(=O)c1ccc(O)cc1 [Compound 4, 4-Hydroxy-benzoic acid decyl ester]  MBC/MIC ratio                 =              16

* * *

Test system: Staphylococcus aureus (ATCC 6538)
protocolDescription: MBC determination by subculturing wells with no visible growth onto agar plates
Type: cell-based
statedConditions: S. aureus
# reported MBC/MIC ratio; entries follow
readoutType: MBC/MIC ratio

>>> df
                                   compound                       targetsystem    readouttype  readoutqualifier  recordednumber
0  CC(C)CCCCCC(O)CCOC(=O)c1ccc(O)cc1 (centres unmarked)  Staphylococcus aureus (ATCC 6538)  MBC/MIC ratio                 =               2
1  CCOC(=O)c1ccc(O)cc1 [Compound 1, 4-Hydroxy-benzoic acid ethyl ester]  Staphylococcus aureus (ATCC 6538)  MBC/MIC ratio                 >              16
2            CC(C)CCCCCCCCOC(=O)c1ccc(O)cc1  Staphylococcus aureus (ATCC 6538)  MBC/MIC ratio                 =               2
3  CCCCCCCCCCCCOC(=O)c1ccc(O)cc1 [Compound 8, 4-Hydroxy-benzoic acid dodecyl ester]  Staphylococcus aureus (ATCC 6538)  MBC/MIC ratio                 >              16
4  CCCCCCCC(O)CCOC(=O)c1ccc(O)cc1 (centres unmarked)  Staphylococcus aureus (ATCC 6538)  MBC/MIC ratio                 >              16
